ASSAY METHOD TEXT: inhibitors of intracellular T. cruzi replication, confirmation, NIH3T3 host cells, beta-gal luminescence (AID 2044);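 also: intracellular parasites grown in NIH/3T3 mouse fibroblasts as host cells; luminescent beta-galactosidase reporter signal from transgenic T. cruzi replicating inside host cells; inhibitors lower the luminescence signal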
Assay type: functional, cell-based
The source made the active and inactive calls.
Kindly supply the reported EC50 values for the records listed here.

Prompt line: Using the record for "Cc1ccc(-c2nc(NC(=O)c3nn(C)cc3[N+](=O)[O-])sc2C)cc1C" , report its EC50.
Response line: 2700 nM (active)

Prompt line: Next entry: "COc1cccc(-c2nc(N3CCN(C)CC3)c3ccccc3n2)c1O"
Response line: < 100 nM (active)

Prompt line: Next up: "COc1cc(NS(=O)(=O)c2ccc(C)cc2)c2ncccc2c1"
Response line: 524 nM (active)

Prompt line: Let us now turn to "C=CCc1c(C)nc(-c2ccccc2)nc1N/N=C/c1ccncc1"
Response line: 941 nM (active)

* * *

MEASURED TARGET: cAMP-dependent protein kinase catalytic subunit alpha (Homo sapiens, UniProt P17612)
Type: functional
Active and inactive are the calls of the source.
Assign a class; possible classes are active, inactive

Prompt line: I would be grateful if you could indicate the recorded call for "O=C(NCc1ccccc1)c1c[nH]n2c(=O)cc(-c3ccncc3)nc12" .
Response line: active

Prompt line: Same lookup for "O=C(Nc1ccccc1)Nc1ccccn1" , please.
Response line: inactive

Prompt line: Could you do the same for "NC(=O)c1ccccc1Nc1nc(Nc2ccccc2)ncc1C(F)(F)F" , please?
Response line: active

Prompt line: Would you mind doing COc1cc(Nc2ncc3c(n2)-c2ccc(Cl)cc2C(c2c(F)cccc2OC)=NC3)ccc1C(=O)O [ALISERTIB] as well?
Response line: active

Prompt line: Query "OCCNc1cc(-c2c[nH]c3ncccc23)cc(Cl)n1" next
Response line: active

* * *

MEASURED TARGET: Cytochrome P450 3A4 (Homo sapiens, UniProt P08684);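 also: confirmatory qHTS run detecting inhibitors and substrates of CYP3A4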
Sequence (P08684 whole entry): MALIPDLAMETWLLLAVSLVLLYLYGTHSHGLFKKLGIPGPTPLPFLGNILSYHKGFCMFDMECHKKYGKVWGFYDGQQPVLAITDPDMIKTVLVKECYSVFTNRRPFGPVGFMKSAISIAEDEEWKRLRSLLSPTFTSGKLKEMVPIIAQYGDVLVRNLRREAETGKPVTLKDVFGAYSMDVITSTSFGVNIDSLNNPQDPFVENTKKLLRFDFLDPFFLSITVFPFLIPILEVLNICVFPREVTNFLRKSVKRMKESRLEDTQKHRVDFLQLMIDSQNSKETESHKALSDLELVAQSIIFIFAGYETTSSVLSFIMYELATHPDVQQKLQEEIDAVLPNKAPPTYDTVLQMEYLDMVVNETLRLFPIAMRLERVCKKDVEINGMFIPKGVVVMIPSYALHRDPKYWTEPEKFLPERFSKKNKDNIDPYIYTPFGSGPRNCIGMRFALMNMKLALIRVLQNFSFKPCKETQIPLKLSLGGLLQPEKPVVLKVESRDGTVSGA
CONDITION NOTES: Potency
READOUT LABEL: AC50

Prompt line: Please look up its AC50: "CCN(CC)CCCCn1c(-c2ccccc2)nc2c(NC3CCCCC3)nc(C)nc21"
Response line: 25.1 µM (inconclusive)

Prompt line: And "COc1cc(O)c2c(=O)cc(C)oc2c1CC=C(C)C" ?
Response line: 39.8 µM (inconclusive)

Prompt line: What do we get for "Nc1nc[nH]n1" ?
Response line: 15.8 µM (inconclusive)

Prompt line: What do you get for "O=c1c(O)c(-c2ccc(O)c(O)c2)oc2ccccc12" ?
Response line: 31.6 µM (inconclusive)

Prompt line: Query "Cc1nc(N2CCOCC2)c2nc(-c3ccccc3)n(CCN3CCCC3)c2n1" next
Response line: 20 µM (inconclusive)

* * *

# AC50 per entry for UniProtKB P11712
# Sequence (P11712 whole entry): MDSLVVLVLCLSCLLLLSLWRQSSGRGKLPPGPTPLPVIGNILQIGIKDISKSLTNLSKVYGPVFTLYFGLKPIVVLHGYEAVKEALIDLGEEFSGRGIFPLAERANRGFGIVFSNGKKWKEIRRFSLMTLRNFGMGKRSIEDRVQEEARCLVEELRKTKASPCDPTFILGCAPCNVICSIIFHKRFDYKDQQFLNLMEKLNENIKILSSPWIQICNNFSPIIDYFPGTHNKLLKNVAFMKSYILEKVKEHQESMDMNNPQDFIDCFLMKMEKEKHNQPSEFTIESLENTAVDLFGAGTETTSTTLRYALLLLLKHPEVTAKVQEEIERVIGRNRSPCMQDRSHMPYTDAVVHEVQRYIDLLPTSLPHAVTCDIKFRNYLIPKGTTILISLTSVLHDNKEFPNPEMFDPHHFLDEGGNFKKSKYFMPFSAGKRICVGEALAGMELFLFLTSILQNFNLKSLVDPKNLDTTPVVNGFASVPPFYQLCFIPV

Prompt line: Data request, read-out AC50, for "CCCc1nnc(NC(=O)c2cccs2)s1"
Response line: 12.6 µM (inconclusive)

Prompt line: What would you report for "CCNC(=O)c1c(NC(C)=O)sc2c1CCCC2" ?
Response line: 17.8 µM (inconclusive)

Prompt line: Then Cc1ccccc1C(C(=O)NC1CCCC1)N(C(=O)Cc1cccs1)c1ccc2c(c1)OCCO2 (centres undefined) ?
Response line: 0.891 µM (inconclusive)

Prompt line: And for O=C(NCc1ccccc1)C(c1ccncc1)N(C(=O)c1csnn1)C1CC1 (centres undefined) ?
Response line: 1.78 µM (inconclusive)

Prompt line: // next record CCC[C@@H]1C[C@@]1(CCC)C(NC(=O)c1cccs1)c1ccc(Cl)cc1 (some centres undefined)
Response line: 5.01 µM (inconclusive)

Prompt line: Do the same for "N#Cc1c2c(c(-n3cnc4ccccc43)n3c1nc1ccccc13)CCC2" please
Response line: 10 µM (inconclusive)

Prompt line: Could you do the same for "CN(Cc1ccco1)c1ncnc2ccc(-c3cccc(C#N)c3)cc12" , please?
Response line: 1.58 µM (inconclusive)

Prompt line: Next record, please: "Cc1ccc(C(=O)COC(=O)c2ccc3c(c2)C(=O)N(c2cccc4ncccc24)C3=O)cc1C"
Response line: 0.708 µM (inconclusive)

Prompt line: Now this one: "Cc1cc(C(=O)CSC(=S)SC(C)(C)C)ccc1Cl"
Response line: 5.01 µM (inconclusive)
